- Tested on: transcription factor AP-1 (nuclear extract protein prepared from HeLa cells)
- protocol: Activities on AP-1 binding reaction to recognition sequence (ELISA) using nuclear extract protein
- condition details: 100 μM; ELISA using nucleus-extracted protein
- Procedure: Activities on AP-1 Binding Reaction to Recognition Sequence (ELISA) Nuclear extract protein containing transcription factor AP-1 prepared from HeLa cells was coated on 96-well ELISA plate (100 ng/well) in Hepes buffer (20 mM Hepes-potassium hydroxide (pH 7.9), 0,5 mM ethylenediamine-tetraacetic acid, 50 mM potassium chloride, 10% glycerol). After washing, a blocking treatment was carried out with bovine serum albumin, and then used for a binding assay using nuclear extract protein. […]
Bridge positions count the residues as written; N and C are the ends. Peptide text beside a SMILES is read from it.
recorded metric: Inhibition rate (%)
Please state the figure in %; there is no need to write the unit.

Solved cases below.
molecule="CC(=O)NC1CSSCC(C(N)=O)NC(=O)CNC(=O)C(CC(C)C)NC(=O)C(C)NC(=O)C(CC(C)C)NC(=O)C(CO)NC(=O)C(CC(C)C)NC(=O)C(CCC(N)=O)NC(=O)CNC1=O (stereo not shown) [3 (2)] (Ac-CGQLSLALGC-NH2; disulfide 1-10; configuration not given here)" measured_on="transcription factor AP-1 (nuclear extract protein prepared from HeLa cells)" unit_descriptor=% quantitative_readout=94
molecule="CC(=O)NC1CSSCC(C(N)=O)NC(=O)CNC(=O)C(CC(=O)O)NC(=O)C(C)NC(=O)C(CC(C)C)NC(=O)C(CC(=O)O)NC(=O)C(CC(C)C)NC(=O)C(CC(N)=O)NC(=O)CNC1=O (stereo not shown) [3 (6)] (Ac-CGNLDLADGC-NH2; disulfide 1-10; configuration not given here)" measured_on="transcription factor AP-1 (nuclear extract protein prepared from HeLa cells)" unit_descriptor=% quantitative_readout=42
molecule="CC(=O)NC1CSSCC(C(N)=O)NC(=O)C(CC(=O)O)NC(=O)CNC(=O)C(CC(C)C)NC(=O)C(C)NC(=O)C(CC(C)C)NC(=O)C(CC(C)C)NC(=O)C(CC(N)=O)NC(=O)CNC1=O (stereo not shown) [3 (10)] (Ac-CGNLLALGDC-NH2; disulfide 1-10; configuration not given here)" measured_on="transcription factor AP-1 (nuclear extract protein prepared from HeLa cells)" unit_descriptor=% quantitative_readout=76

Would you please give the reported Inhibition rate of CC(=O)NC1CSSCC(C(N)=O)NC(=O)CNC(=O)C(CC(=O)O)NC(=O)C(C)NC(=O)C(CC(C)C)NC(=O)C(CO)NC(=O)C(CC(C)C)NC(=O)C(CCC(N)=O)NC(=O)CNC1=O (stereo not shown) [3(5)] (Ac-CGQLSLADGC-NH2; disulfide 1-10; configuration not given here) with transcription factor AP-1 (nuclear extract protein prepared from HeLa cells)?
43
